# System: SR
# Measurement protocol: NCI tumour cell line growth inhibition, 48 h
Calls of active or inactive are those of the source. Cut-off read from the data, not from the text of the source: active = GI50 up to about 1.1 µM and inactive = higher.
Could you please report measured GI50 for the items listed next?

> print(dat)
                                   compound  study.system             observed
1  COC1=CC(=O)C2[C@H]3Cc4ccccc4[C@H]3C2(C)C1=O (some centres undefined)            SR   70.3 µM (inactive)
2  O=C(Nc1nc2ncn(CCNCc3ccccc3)c2c(=O)[nH]1)c1ccccc1            SR  > 100 µM (inactive)
3  CN1CC[C@]23c4c5ccc(O)c4OC2c2[nH]ncc2C[C@H]3[C@H]1C5 (some centres undefined)            SR  > 100 µM (inactive)
4  O=C1c2cccc([N+](=O)[O-])c2C(=O)c2nccnc21            SR   2.05 µM (inactive)

Hey, can you go through the list below and give me GI50 for every item?
1. N#Cc1nc(-c2ccc(-c3nc(C#N)c(N)o3)cc2)oc1N
2. C=Nc1ccc([N+](=O)[O-])cc1
3. COC(COC(N)=O)C1=C(N2CC2)C(=O)C(C)=C(N2CC2)C1=O (centres undefined)
4. Oc1nc(-c2ccccc2)cc(-c2ccccc2O)n1
5. CC(=N\N)/C(C)=N/N=C(C)/C(C)=N/N=C(C)/C(C)=N/N=C(C)/C(C)=N/N

Result block:
1. > 10 µM (inactive)
2. > 41.5 µM (inactive)
3. < 0.0221 µM (active)
4. > 100 µM (inactive)
5. 0.248 µM (active)
